Measured solubility by item
- assay name: Solubility test in water, LCMS against standard curve
- measurement context: Solubility (mg/mL), in water, Table 3-1

CCCC1O[C@@H]2C[C@H]3[C@@H]4C[C@H](F)C5=CC(=O)C=C[C@]5(C)[C@@]4(F)[C@@H](O)C[C@]3(C)[C@]2(C(=O)CNC(=O)OCc2ccc(NC(=O)[C@H](CCCNC(N)=O)NC(=O)[C@@H](NC(=O)CCOCCOCCOCCOCCNC(=O)CCC(=O)N3Cc4ccccc4C#Cc4ccccc43)C(C)C)cc2)O1 (stereo partly drawn) [10a]: 20 µg/mL

Form field solubility, entry CCCC1O[C@@H]2C[C@H]3[C@@H]4C[C@H](F)C5=CC(=O)C=C[C@]5(C)[C@@]4(F)[C@@H](O)C[C@]3(C)[C@]2(C(=O)COc2ccc(NC(=O)[C@H](CCCNC(N)=O)NC(=O)[C@@H](NC(=O)[C@@H](CCCCNC(=O)COC3CCCCCc4c3nnn4CCOCCOCCOCCOCCC(=O)NCCS(=O)(=O)O)NC(=O)CCOCCOCCOCCOCCNC(=O)CCC(=O)N3Cc4ccccc4C#Cc4ccccc43)C(C)C)cc2)O1 (stereo partly drawn) : > 1000 µg/mL

// recorded solubility for CCCC1O[C@@H]2C[C@H]3[C@@H]4C[C@H](F)C5=CC(=O)C=C[C@]5(C)[C@@]4(F)[C@@H](O)C[C@]3(C)[C@]2(C(=O)CNC(=O)OCc2ccc(NC(=O)[C@H](CCCNC(N)=O)NC(=O)[C@@H](NC(=O)[C@@H](CCCCNC(=O)COC3CCCCCc4c3nnn4CCOCCOCCOCCOCCC(=O)NCCS(=O)(=O)O)NC(=O)CCOCCOCCOCCOCCNC(=O)CCC(=O)N3Cc4ccccc4C#Cc4ccccc43)C(C)C)cc2)O1 (stereo partly drawn) : > 10000 µg/mL

###

- study system: Human liver Cathepsin B (Homo sapiens, UniProt P07858)
- assay name: Cathepsin B cleavage assay of linker-payloads
- measurement context: Table 1C
Attribute: CapB cleavage rate (%) at 4 hrs
Write down the numeric answer in % and omit the unit.

CCCC1O[C@@H]2C[C@H]3[C@@H]4C[C@H](F)C5=CC(=O)C=C[C@]5(C)[C@@]4(F)[C@@H](O)C[C@]3(C)[C@]2(C(=O)COc2ccc(NC(=O)[C@H](C)NC(=O)[C@@H](NC(=O)[C@@H](CCCCNC(=O)COC3CCCCCc4c3nnn4CCOCCOCCOCCOCCC(=O)NCCS(=O)(=O)O)NC(=O)CCOCCOCCOCCOCCNC(=O)CCC(=O)N3Cc4ccccc4C#Cc4ccccc43)C(C)C)cc2)O1 (some centres unmarked): 30.8

Now for the compound whose CapB cleavage rate (%) at 4 hrs we want.
response.value for CCCC1O[C@@H]2C[C@H]3[C@@H]4C[C@H](F)C5=CC(=O)C=C[C@]5(C)[C@@]4(F)[C@@H](O)C[C@]3(C)[C@]2(C(=O)CNC(=O)OCc2ccc(NC(=O)[C@H](CCCNC(N)=O)NC(=O)[C@@H](NC(=O)[C@@H](CCCCNC(=O)COC3CCCCCc4c3nnn4CCN(CC(=O)NCCS(=O)(=O)O)CC(=O)NCCS(=O)(=O)O)NC(=O)CCOCCOCCOCCOCCNC(=O)CCC(=O)N3Cc4ccccc4C#Cc4ccccc43)C(C)C)cc2)O1 (some centres unmarked) (field: CapB cleavage rate (%) at 4 hrs) = 63.0

###

- assay name: Solubility test in water, LCMS against standard curve
- measurement context: Solubility (mg/mL), in water, Table 3-1
experimental readout: solubility

Worked cases, answers included:
CCCC1O[C@@H]2C[C@H]3[C@@H]4C[C@H](F)C5=CC(=O)C=C[C@]5(C)[C@@]4(F)[C@@H](O)C[C@]3(C)[C@]2(C(=O)COc2ccc(NC(=O)[C@H](C)NC(=O)[C@@H](NC(=O)[C@@H](CCCCNC(=O)COC3CCCCCc4c3nnn4CCOCCOCCOCCOCCC(=O)NCCS(=O)(=O)O)NC(=O)CCOCCOCCOCCOCCNC(=O)CCC(=O)N3Cc4ccccc4C#Cc4ccccc43)C(C)C)cc2)O1 (stereo partly drawn) [1j]: > 10000 µg/mL
CC[C@H](C)[C@@H]([C@@H](CC(=O)N1CCC[C@H]1[C@H](OC)[C@@H](C)C(=O)N[C@H](C)[C@@H](O)c1ccccc1)OC)N(C)C(=O)[C@@H](NC(=O)[C@H](C(C)C)N(C)C(=O)OCc1ccc(NC(=O)[C@H](CCCNC(N)=O)NC(=O)[C@@H](NC(=O)[C@@H](CCCCNC(=O)COC2CCCCCc3c2nnn3CCOCCOCCOCCOCCOCCP(=O)(O)O)NC(=O)CCOCCOCCOCCOCCNC(=O)CCC(=O)N2Cc3ccccc3C#Cc3ccccc32)C(C)C)cc1)C(C)C (stereo partly drawn): 250 µg/mL

API: the following record is the query input.
Notebook: CCCC1O[C@@H]2C[C@H]3[C@@H]4C[C@H](F)C5=CC(=O)C=C[C@]5(C)[C@@]4(F)[C@@H](O)C[C@]3(C)[C@]2(C(=O)COc2ccc(NC(=O)OCc3ccc(NC(=O)[C@H](CCCNC(N)=O)NC(=O)[C@@H](NC(=O)[C@@H](CCCCNC(=O)COC4CCCCCc5c4nnn5CCOCCOCCOCCOCCC(=O)NCC[N+](C)(C)C)NC(=O)CCOCCOCCOCCOCCNC(=O)OC[C@@H]4[C@@H]5CCC#CCC[C@@H]54)C(C)C)cc3)cc2)O1 (stereo partly drawn) [IIIe] , solubility read as > 10000 µg/mL

###

- assay name: Solubility test in water, LCMS against standard curve
experimental readout: solubility (µg/mL)
Response body: numeric value in µg/mL, unit text excluded.

Entry under test: CC(C)[C@H](NC(=O)[C@@H](CCCCNC(=O)COC1CCCCCc2c1nnn2CCOCCOCCOCCOCCC(=O)NCCS(=O)(=O)O)NC(=O)CCOCCOCCOCCOCCNC(=O)CCC(=O)N1Cc2ccccc2C#Cc2ccccc21)C(=O)N[C@@H](CCCNC(N)=O)C(=O)Nc1ccc(COC(=O)N[C@@H](CO)C(=O)Nc2ccc3c(c2)[C@@]2(C)CCC[C@](C)(C(=O)NC(=O)[C@@]4(C)CCC[C@]5(C)c6cc(O)ccc6CC[C@@H]45)[C@@H]2CC3)cc1 (some centres unmarked) [1q] . Its solubility was 170

###

- assay name: Solubility test in water, LCMS against standard curve
- measurement context: Solubility (mg/mL), in water, Table 3
Documented solubility across a set of compounds

CCCC1O[C@@H]2C[C@H]3[C@@H]4C[C@H](F)C5=CC(=O)C=C[C@]5(C)[C@@]4(F)[C@@H](O)C[C@]3(C)[C@]2(C(=O)COc2ccc(NC(=O)[C@H](CCCNC(N)=O)NC(=O)[C@@H](NC(=O)[C@@H](CCCCNC(=O)COC3CCCCCc4c3nnn4CCOCCOCCOCCOCCC(=O)NCCS(=O)(=O)O)NC(=O)CCOCCOCCOCCOCCNC(=O)CCC(=O)N3Cc4ccccc4C#Cc4ccccc43)C(C)C)cc2)O1 (stereo partly drawn): > 1000 µg/mL

Recorded solubility (compound CCCC1O[C@@H]2C[C@H]3[C@@H]4C[C@H](F)C5=CC(=O)C=C[C@]5(C)[C@@]4(F)[C@@H](O)C[C@]3(C)[C@]2(C(=O)COc2ccc(NC(=O)[C@H](C)NC(=O)[C@@H](NC(=O)[C@@H](CCCCNC(=O)COC3CCCCCc4c3nnn4CCOCCOCCOCCOCCC(=O)NCCS(=O)(=O)O)NC(=O)CCOCCOCCOCCOCCNC(=O)CCC(=O)N3Cc4ccccc4C#Cc4ccccc43)C(C)C)cc2)O1 (stereo partly drawn) ): > 10000 µg/mL

Lab note: measured solubility of CCCC1O[C@@H]2C[C@H]3[C@@H]4C[C@H](F)C5=CC(=O)C=C[C@]5(C)[C@@]4(F)[C@@H](O)C[C@]3(C)[C@]2(C(=O)CNC(=O)OCc2ccc(NC(=O)[C@H](CCCNC(N)=O)NC(=O)[C@@H](NC(=O)[C@@H](CCCCNC(=O)COC3CCCCCc4c3nnn4CCOCCOCCOCCOCCC(=O)NCCS(=O)(=O)O)NC(=O)CCOCCOCCOCCOCCNC(=O)CCC(=O)N3Cc4ccccc4C#Cc4ccccc43)C(C)C)cc2)O1 (stereo partly drawn) was > 10000 µg/mL

###

- assay name: physchem
- measurement context: Solubility (mg/mL)
experimental readout: solubility

Just so you know, measured solubility for CCCC1O[C@@H]2C[C@H]3[C@@H]4C[C@H](F)C5=CC(=O)C=C[C@]5(C)[C@@]4(F)[C@@H](O)C[C@]3(C)[C@]2(C(=O)COc2ccc(NC(=O)OCc3ccc(NC(=O)[C@H](CCCNC(N)=O)NC(=O)[C@@H](NC(=O)CCOCCOCCOCCOCCNC(=O)CCC(=O)N4Cc5ccccc5C#Cc5ccccc54)C(C)C)cc3)cc2)O1 (stereo partly shown) [10c] came out at < 100 µg/mL
